Source listed as patent US20250115600A1.

- tgt: AKT1 E17K (Homo sapiens (Human), UniProt P31749, E17K)
- Sequence (P31749 whole entry E17K): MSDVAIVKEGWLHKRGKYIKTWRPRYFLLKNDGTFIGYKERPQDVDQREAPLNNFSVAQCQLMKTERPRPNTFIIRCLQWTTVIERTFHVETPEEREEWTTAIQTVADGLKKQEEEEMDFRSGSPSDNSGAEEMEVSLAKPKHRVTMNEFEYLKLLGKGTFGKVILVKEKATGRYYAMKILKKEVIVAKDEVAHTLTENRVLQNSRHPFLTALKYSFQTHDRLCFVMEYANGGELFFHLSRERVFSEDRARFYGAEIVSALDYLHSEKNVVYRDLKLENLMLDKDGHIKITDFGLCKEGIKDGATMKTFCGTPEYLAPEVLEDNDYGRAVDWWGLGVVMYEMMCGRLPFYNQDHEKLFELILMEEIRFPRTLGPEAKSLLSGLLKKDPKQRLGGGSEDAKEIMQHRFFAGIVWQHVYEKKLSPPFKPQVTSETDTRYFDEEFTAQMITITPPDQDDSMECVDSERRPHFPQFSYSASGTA
- procedure_text: Live cell target engagement (NanoBRET) in HEK293 cells
- Format: cell-based
- measurement_parameters: HEK293, 2 hours at 37° C.

compound	IC50
Nc1ncccc1-c1nc2ccc(-c3ccccc3)nc2n1-c1ccc(CNCCc2cc(O)c(C=O)cc2F)cc1 [Compound 128]	0.1 to 0.5 µM
Nc1ncccc1-c1nc2cccnc2n1-c1ccc(CNC(=O)c2ccc(O)c(C=O)c2)cc1 [Compound 83]	< 0.1 µM
Nc1ncccc1-c1nc2ccc(-c3ccccc3)nc2n1-c1ccc(CNC(=O)C(F)c2ccc(C=O)c(O)c2)cc1 (stereo not shown) [Compound 65]	< 0.1 µM
Nc1ncccc1-c1nc2ccc(N3CCOCC3)nc2n1-c1ccc(C2(NC(=O)Cc3ccc(C=O)c(O)c3F)CC2)cc1 [Compound 140]	< 0.1 µM

---

Entries and their IC50 values follow.
- tgt: UniProt:P31751
- Sequence (P31751 whole entry): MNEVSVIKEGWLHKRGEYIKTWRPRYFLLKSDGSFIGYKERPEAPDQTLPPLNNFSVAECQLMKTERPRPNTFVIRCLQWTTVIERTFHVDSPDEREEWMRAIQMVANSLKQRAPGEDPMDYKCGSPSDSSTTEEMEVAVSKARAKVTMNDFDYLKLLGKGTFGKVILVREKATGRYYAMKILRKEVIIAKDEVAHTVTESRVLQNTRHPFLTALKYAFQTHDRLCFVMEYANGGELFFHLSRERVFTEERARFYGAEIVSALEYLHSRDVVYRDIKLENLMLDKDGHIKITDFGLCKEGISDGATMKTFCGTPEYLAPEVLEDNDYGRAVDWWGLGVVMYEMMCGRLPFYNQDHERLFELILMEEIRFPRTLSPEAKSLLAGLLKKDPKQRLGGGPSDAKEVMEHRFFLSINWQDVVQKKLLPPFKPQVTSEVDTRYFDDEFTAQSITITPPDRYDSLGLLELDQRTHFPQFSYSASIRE
- procedure_text: Live cell target engagement (NanoBRET) in HEK293 cells
- Assay type: cell-based
- measurement_parameters: HEK293, 2 hours at 37° C.

compound	IC50
CC(=O)N(C)C1CCN(c2cccc(-c3ccc4nc(-c5cccnc5N)n(-c5ccc(CNCCc6ccc(C=O)c(O)c6)cc5)c4n3)c2)CC1	< 100 nM
Nc1ncccc1-c1nc2ccc(-c3cccc(N4CCOCC4)c3)nc2n1-c1ccc(CNC(=O)Cc2ccc(C=O)c(O)c2)cc1	< 100 nM
Nc1ncccc1-c1nc2ccc(-c3ccccc3)nc2n1-c1ccc(CN2CCC(c3ccc(O)c(C=O)c3)CC2)cc1	< 100 nM
Nc1ncccc1-c1nc2ccc(-c3ccccc3)nc2n1-c1ccc(S(=O)(=O)NCCc2ccc(C=O)c(O)c2)cc1	> 500 nM
CC(NC(=O)Cc1ccc(C=O)c(O)c1)c1ccc(-n2c(-c3cccnc3N)nc3ccc(-c4ccccc4)nc32)cc1 (centres unmarked)	100 to 500 nM
Cn1cc(C(=O)Nc2cc(CC(=O)NCc3ccc(-n4c(-c5cccnc5N)nc5cccnc54)cc3)ccc2C=O)cn1	> 500 nM
Nc1ncccc1-c1nc2ccc(-c3ccccc3)nc2n1-c1ccc(CNCCc2ccc(C=O)c(O)c2F)cc1	< 100 nM
Nc1ncccc1-c1nc2ccc(-c3ccccc3)nc2n1-c1ccc(CNCCc2cc(O)c(C=O)cc2F)cc1	100 to 500 nM
Nc1ncccc1-c1nc2ccc(-c3cccnc3)nc2n1-c1ccc(CNC(=O)Cc2ccc(C=O)c(O)c2)cc1	> 500 nM
Nc1ncccc1-c1nc2ccc(-c3ccccc3)nc2n1-c1ccc(C2(NCCc3ccc(C=O)c(O)c3)CCC2)cc1	> 500 nM
Nc1ncccc1-c1nc2ccc(-c3ccccc3)nc2n1-c1ccc(CNC(=O)Cc2ccc(C=O)c(O)c2Cl)cc1	100 to 500 nM
C[C@H](NCCc1ccc(O)c(C=O)c1)c1ccc(-n2c(-c3cccnc3N)nc3ccc(-c4ccccc4)nc32)cc1	100 to 500 nM
Nc1ncccc1-c1nc2ccc(-c3ccccc3)nc2n1-c1ccc(CNC(=O)c2ccc(O)c(C=O)c2F)cc1	> 500 nM
Nc1ncccc1-c1nc2ccc(-c3ccccc3)nc2n1-c1ccc(CNC(=O)C(F)c2ccc(C=O)c(O)c2)cc1 (centres unmarked)	100 to 500 nM

---

- tgt: AKT1 WT (Homo sapiens (Human))
- Sequence (P31749 whole entry): as the sequence (P31749 whole entry E17K) above, with K17E counted along it
- procedure_text: Live cell target engagement (NanoBRET) in HEK293 cells
- Type: cell-based
- measurement_parameters: HEK293, 2 hours at 37° C.
pIC50: −log10 of the molar value.
readout_name: pIC50

compound	tgt	readout_name	result
Nc1ncccc1-c1nc2ccc(N3CCOCC3)nc2n1-c1ccc(CNCCc2ccc(C=O)c(O)c2)cc1	AKT1 WT (Homo sapiens (Human))	pIC50	6.30 to 7.00
Nc1ncccc1-c1nc2ccc(C3CC3)nc2n1-c1ccc(CNC(=O)c2ccc(O)c(C=O)c2)cc1	AKT1 WT (Homo sapiens (Human))	pIC50	6.30 to 7.00
Nc1ncccc1-c1nc2ccc(-c3ccccc3)nc2n1-c1ccc(C(=O)NCC#Cc2ccc(C=O)c(O)c2)cc1	AKT1 WT (Homo sapiens (Human))	pIC50	< 6.30
Nc1ncccc1-c1nc2ccc(-n3cccn3)nc2n1-c1ccc(CNC(=O)Cc2ccc(C=O)c(O)c2)cc1	AKT1 WT (Homo sapiens (Human))	pIC50	> 7.00
Nc1ncccc1-c1nc2cccnc2n1-c1ccc(CNCCc2ccc(C=O)c(O)c2F)cc1	AKT1 WT (Homo sapiens (Human))	pIC50	< 6.30
Nc1ncccc1-c1nc2ccc(-c3cccc(N4CCOCC4)c3)nc2n1-c1ccc(CNC(=O)c2ccc(O)c(C=O)c2)cc1	AKT1 WT (Homo sapiens (Human))	pIC50	> 7.00
Nc1ncccc1-c1nc2ccc(-c3ccccc3)nc2n1-c1ccc(CNC(=O)c2ccc(O)c(C=O)c2)cc1	AKT1 WT (Homo sapiens (Human))	pIC50	> 7.00
CC(C)c1ccc2nc(-c3cccnc3N)n(-c3ccc(CNC(=O)Cc4ccc(C=O)c(O)c4)cc3)c2n1	AKT1 WT (Homo sapiens (Human))	pIC50	> 7.00
Nc1ncccc1-c1nc2cc(-c3ccccc3)cnc2n1-c1ccc(CNCCc2ccc(C=O)c(O)c2)cc1	AKT1 WT (Homo sapiens (Human))	pIC50	< 6.30
CC(=O)Nc1cccc(-c2ccc3nc(-c4cccnc4N)n(-c4ccc(CNCCc5ccc(C=O)c(O)c5F)cc4)c3n2)c1	AKT1 WT (Homo sapiens (Human))	pIC50	6.30 to 7.00
Nc1ncccc1-c1nc2ccc(-c3ccccc3)nc2n1-c1ccc(CNC(=O)c2ccc(O)c(C=O)c2F)cc1	AKT1 WT (Homo sapiens (Human))	pIC50	6.30 to 7.00
Nc1ncccc1-c1nc2ccc(OC3CC3)nc2n1-c1ccc(CNC(=O)Cc2ccc(C=O)c(O)c2)cc1	AKT1 WT (Homo sapiens (Human))	pIC50	> 7.00
CC(C)(O)c1ccc2nc(-c3cccnc3N)n(-c3ccc(CNC(=O)Cc4ccc(C=O)c(O)c4)cc3)c2n1	AKT1 WT (Homo sapiens (Human))	pIC50	< 6.30
Nc1ncccc1-c1nc2ccc(-c3ccccc3)nc2n1-c1ccc(CNC(=O)Cc2ccc(C=O)c(O)c2Cl)cc1	AKT1 WT (Homo sapiens (Human))	pIC50	> 7.00
Nc1ncccc1-c1nc2ccc(-c3ccccc3)nc2n1-c1ccc(S(=O)(=O)NCCc2ccc(C=O)c(O)c2)cc1	AKT1 WT (Homo sapiens (Human))	pIC50	< 6.30
Nc1ncccc1-c1nc2ccc(-c3cccc(N4CCOCC4)c3)nc2n1-c1ccc(CNC(=O)Cc2ccc(C=O)c(O)c2Cl)cc1	AKT1 WT (Homo sapiens (Human))	pIC50	> 7.00
Nc1ncccc1-c1nc2cccnc2n1-c1ccc(CNC(=O)c2ccc(O)c(C=O)c2)cc1	AKT1 WT (Homo sapiens (Human))	pIC50	6.30 to 7.00
Nc1ncccc1-c1nc2ccc(-c3ccccc3)nc2n1-c1ccc(CNC(=O)c2ccc(C=O)c(O)c2F)cc1	AKT1 WT (Homo sapiens (Human))	pIC50	> 7.00
Nc1ncccc1-c1nc2ccc(-c3ccccc3)nc2n1-c1ccc(CCNCCc2ccc(C=O)c(O)c2)cc1	AKT1 WT (Homo sapiens (Human))	pIC50	> 7.00
Nc1ncccc1-c1nc2ccc(-c3cccnc3)nc2n1-c1ccc(CNC(=O)C2(c3ccc(C=O)c(O)c3F)CC2)cc1	AKT1 WT (Homo sapiens (Human))	pIC50	< 6.30
CC(=O)Nc1c(C=O)ccc(CCNCc2ccc(-n3c(-c4cccnc4N)nc4ccc(-c5ccccc5)nc43)cc2)c1F	AKT1 WT (Homo sapiens (Human))	pIC50	> 7.00
Nc1ncccc1-c1nc2ccc(-c3ccccc3)nc2n1-c1ccc(C2(NCCc3ccc(C=O)c(O)c3)CCC2)cc1	AKT1 WT (Homo sapiens (Human))	pIC50	< 6.30
Nc1ncccc1-c1nc2ccc(C3CC3C(=O)N3CCOCC3)nc2n1-c1ccc(CNC(=O)Cc2ccc(C=O)c(O)c2)cc1 (stereo not shown)	AKT1 WT (Homo sapiens (Human))	pIC50	< 6.30
Nc1ncccc1-c1nc2ccc(-c3ccccc3F)nc2n1-c1ccc(CNC(=O)Cc2ccc(C=O)c(O)c2)cc1	AKT1 WT (Homo sapiens (Human))	pIC50	> 7.00
Nc1ncccc1-c1nc2cccnc2n1-c1ccc(CCC(=O)Nc2ccc(C=O)c(O)c2)cc1	AKT1 WT (Homo sapiens (Human))	pIC50	< 6.30
Nc1ncccc1-c1nc2ccc(-c3cccnc3)nc2n1-c1ccc(CNCCc2ccc(C=O)c(O)c2F)cc1	AKT1 WT (Homo sapiens (Human))	pIC50	> 7.00
Nc1ncccc1-c1nc2ccc(-c3ccccc3)nc2n1-c1ccc(CC(=O)NC2(c3ccc(C=O)c(O)c3)CC2)cc1	AKT1 WT (Homo sapiens (Human))	pIC50	> 7.00
COc1c(CCNCc2ccc(-n3c(-c4cccnc4N)nc4ccc(-c5ccccc5)nc43)cc2)ccc(C=O)c1O	AKT1 WT (Homo sapiens (Human))	pIC50	6.30 to 7.00
